- SUBJECT OF TEST: UniProt:P46663
- Sequence (P46663 1-353): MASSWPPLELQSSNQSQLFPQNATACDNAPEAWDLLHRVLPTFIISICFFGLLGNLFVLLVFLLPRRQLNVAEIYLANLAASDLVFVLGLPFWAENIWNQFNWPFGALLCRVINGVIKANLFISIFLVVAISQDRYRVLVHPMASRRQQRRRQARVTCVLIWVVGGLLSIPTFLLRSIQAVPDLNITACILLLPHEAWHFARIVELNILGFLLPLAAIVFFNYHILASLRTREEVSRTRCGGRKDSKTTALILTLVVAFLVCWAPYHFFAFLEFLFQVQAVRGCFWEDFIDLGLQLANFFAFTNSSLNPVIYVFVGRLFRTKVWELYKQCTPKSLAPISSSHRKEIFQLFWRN
- ASSAY SUMMARY: FLIPR calcium ion flux assay, inhibitory activity against human B1R
- MEASUREMENT CONTEXT: HEK293 cells stably expressing human B1R; agonist [Lys-des-Arg9]-Bradykinin 4.6 nM (EC80); FLIPR method
- Description: The inhibitory activity of the compounds against human B1R and B2R channels was determined by calcium ion flux assay using fluorometric imaging plate reader (FLIPR method). See literatures of Lee, Chen et al. for the method. […] 4. […] The calcium ion fluorescence signal was recorded to determine whether the compound may have agonist activity. […] The Ca^++-dependent fluorescence signal was continuously monitored at a wavelength of 538 nm to analyze the inhibitory activity of the compound. […]
PARAMETER MEASURED: IC50 (nM)
Express the result in nM but write the number alone.

Form field: reported IC50 of CC(C)(C)C1CCN(C(=O)Nc2ccc(C(=O)NC3CCCC3)c(-c3nn[nH]n3)c2)CC1 [Compound 46] 74.6

Report IC50 for COc1cncc(-c2ccc(NC(=O)N3CCC(C(C)(C)C)CC3)cc2-c2nn[nH]n2)c1 [Compound 48] please. 372

For CCOc1ccc(-c2ccc(NC(=O)N[C@H]3CC[C@H](C)CC3)cc2-c2nn[nH]n2)cn1 [Compound 71] , what is its reported IC50? 66.1
